- PROTOCOL_DETAILS: Solubility: duration till 1 g of Aspartame crystals in 500 ml distilled water was completely dissolved as visually observed
- Assay type: physicochemical
- CONDITION_SUMMARY: 1 g in 500 ml distilled water, 20° C., magnetic stirrer 200 r.p.m.; Table 2, dried at 50° C. then 70° C.
Peptide text beside a SMILES is read from it.
# Solubility (min.) (duration till completely dissolved) annotations

Req: Kindly indicate its recorded Solubility (min.) (duration till completely dissolved). Item: COC(=O)[C@H](Cc1ccccc1)NC(=O)[C@@H](N)CC(=O)O [compound 5] (H-Asp-Phe-OMe)
Resp: 7 to 8 min

Req: Kindly indicate its recorded Solubility (min.) (duration till completely dissolved). Item: COC(=O)[C@H](Cc1ccccc1)NC(=O)[C@@H](N)CC(=O)O [Example 5] (H-Asp-Phe-OMe)
Resp: 4 to 5 min

Req: Kindly indicate its recorded Solubility (min.) (duration till completely dissolved). Item: COC(=O)[C@H](Cc1ccccc1)NC(=O)[C@@H](N)CC(=O)O [compound 3] (H-Asp-Phe-OMe)
Resp: 15 to 16 min

Req: Kindly indicate its recorded Solubility (min.) (duration till completely dissolved). Item: COC(=O)[C@H](Cc1ccccc1)NC(=O)[C@@H](N)CC(=O)O [compound 4] (H-Asp-Phe-OMe)
Resp: 14 to 15 min

Req: Kindly indicate its recorded Solubility (min.) (duration till completely dissolved). Item: COC(=O)[C@H](Cc1ccccc1)NC(=O)[C@@H](N)CC(=O)O [Example 4] (H-Asp-Phe-OMe)
Resp: 4 to 5 min

Req: Kindly indicate its recorded Solubility (min.) (duration till completely dissolved). Item: COC(=O)[C@H](Cc1ccccc1)NC(=O)[C@@H](N)CC(=O)O [Example 2] (H-Asp-Phe-OMe)
Resp: 5 to 6 min

Req: Kindly indicate its recorded Solubility (min.) (duration till completely dissolved). Item: COC(=O)[C@H](Cc1ccccc1)NC(=O)[C@@H](N)CC(=O)O [compound 2] (H-Asp-Phe-OMe)
Resp: 13 to 14 min

Shifting focus to the molecule that follows.
Req: Kindly indicate its recorded Solubility (min.) (duration till completely dissolved). Item: COC(=O)[C@H](Cc1ccccc1)NC(=O)[C@@H](N)CC(=O)O [Example 3] (H-Asp-Phe-OMe)
Resp: 5 to 6 min

====

- PROTOCOL_DETAILS: Ratio of I type crystals by X-ray diffraction specific peaks with calibration curve
- Format: physicochemical
- CONDITION_SUMMARY: peaks at 2θ 4.4° (I) and 5.0° (II), Table 2, dried at 50° C. then 70° C.
Peptide text beside a SMILES is read from it.
MEASUREMENT_TYPE: Ratio of I type crystals (%)

Req: Kindly indicate its recorded Ratio of I type crystals (%). Item: COC(=O)[C@H](Cc1ccccc1)NC(=O)[C@@H](N)CC(=O)O [compound 5] (H-Asp-Phe-OMe)
Resp: 78

Req: Kindly indicate its recorded Ratio of I type crystals (%). Item: COC(=O)[C@H](Cc1ccccc1)NC(=O)[C@@H](N)CC(=O)O [Example 2] (H-Asp-Phe-OMe)
Resp: 90

Req: Kindly indicate its recorded Ratio of I type crystals (%). Item: COC(=O)[C@H](Cc1ccccc1)NC(=O)[C@@H](N)CC(=O)O [Example 4] (H-Asp-Phe-OMe)
Resp: 98

Req: Kindly indicate its recorded Ratio of I type crystals (%). Item: COC(=O)[C@H](Cc1ccccc1)NC(=O)[C@@H](N)CC(=O)O [compound 3] (H-Asp-Phe-OMe)
Resp: 51

Req: Kindly indicate its recorded Ratio of I type crystals (%). Item: COC(=O)[C@H](Cc1ccccc1)NC(=O)[C@@H](N)CC(=O)O [Example 3] (H-Asp-Phe-OMe)
Resp: 100

A. COC(=O)[C@H](Cc1ccccc1)NC(=O)[C@@H](N)CC(=O)O [compound 2] (H-Asp-Phe-OMe)
B. COC(=O)[C@H](Cc1ccccc1)NC(=O)[C@@H](N)CC(=O)O [Example 5] (H-Asp-Phe-OMe)
Req: Pick one, A or B : lowest reported Ratio of I type crystals (%). Indicate which entry you chose by stating its label.
Resp: A
